# Tested on: PC-3 prostate
# ASSAY_NAME: NCI-60 one-dose screen, 48 h (100 = growth as untreated, 0 = no growth, -100 = all killed)
# CONDITION_SET: 10 µM unless noted
This is part of a sample that, as a whole, favours compounds with a hit. Of some 83,000 tested, about 20% had one in any assay.
Note to self: class = bucket of growth, per bottom range: < 30%; center range: ≥ 30% and < 80%; top range: ≥ 80%

Use these answered entries as a reference point.
COMPOUND	QUALITATIVE_LABEL
CN(C)c1ccc(C(c2ccccc2)c2ccc(N(C)C)cc2)cc1	top range
COc1cc(/C=C/c2ccc3c(Br)cc(Br)c(O)c3n2)ccc1O	bottom range
CSC1=NC(=Nc2c(C)cccc2C)C2(CCC(C(C)(C)C)CC2)N1c1ccc(Cl)cc1 (centres undefined)	center range

Band assignment needed for O=NN(CC(=O)NNc1ccccc1)CC(=O)NNc1ccccc1 please.
center range

Any idea which band CC(C)(C)CC(C)(C)NCc1cc(C(C)(C)C)cc(CNC(C)(C)CC(C)(C)C)c1O is in?
center range

// bin(item) where item = O=C(N=Nc1c(Cl)c(O)c2ccccc2c1O)C(=O)Nc1cccc(C(F)(F)F)c1
center range

Would you mind sorting CC(CN1CCN(C)CC1)CN1c2ccccc2Sc2ccc(C(F)(F)F)cc21 (centres undefined) into the appropriate category?
center range

Where would COC(=O)/C=C/c1cc(OC(C)=O)c2c(c1)[C@@H](C(=O)OC)[C@H](c1ccc(OC(C)=O)c(OC(C)=O)c1)O2 land among the classes by reported growth?
bottom range

State the class of the compound shown: CCCCNCC(O)c1cc2c(Cl)cc(Cl)cc2c2cc(C(F)(F)F)ccc12 (centres undefined)
bottom range

Which growth band matches CC[C@H](Nc1nc(N)nc(N)c1Cl)c1nc2cccc(NCc3ccc(C(=O)NO)cc3)c2c(=O)n1-c1ccccc1 ?
bottom range

Into which bin does this compound go? CC(C)NCCCCCNc1cc(O)cc2cccnc12
top range

For COC(=O)CNS(=O)(=O)c1ccc2c(c1)Cc1cc(S(=O)(=O)NCC(=O)OC)ccc1-2 , which growth bin applies?
top range

Tag the class for O=C1C=CC(=O)N1CO
top range

Kindly identify the class of CCc1ccc2c(c1)N(CCO)C1=C(C(=O)OC1)C2c1cccc(Cl)c1 (centres undefined) .
bottom range

For COc1cc(CN2CCO[C@H](COc3cccc(F)c3)C2)ccc1Cl , which growth bin applies?
bottom range

Which of the defined bands does the recorded growth of O=C(Nc1ccc(Oc2ccc(NC(=O)Nc3ccccc3Cl)cc2)cc1)Nc1ccccc1Cl sit within?
bottom range

Classify this compound: Brc1cccc(-n2ncc3c(Nc4ccc(-c5nnc(-c6ccccc6)o5)cc4)ncnc32)c1
top range

---

# Tested on: OVCAR-8 ovarian
# ASSAY_NAME: NCI-60 one-dose screen, 48 h (100 = growth as untreated, 0 = no growth, -100 = all killed)
# CONDITION_SET: 10 µM unless noted
# Procedure: Growth inhibition of the OVCAR-8 human tumor cell line is measured as a screen for anti-cancer activity. Cells are grown in 96 well plates and exposed to the test compound for 48 hours. Compounds are tested at a single concentration, which is 10^-5 M for most compounds. The reported endpoint is percent growth (GI% or GIPRCNT), where numbers from 0 - 100% represent growth inhibition, and numbers from -100% - 0 represent cell death. For example, a value of 40 represents 60% growth inhibition. […]
About 83,000 compounds went through this panel and 20% of them were active in at least one assay; those are over-represented in the sample as a whole.
// reported growth for each item listed
Numeric answer only, unit % assumed.

Observe how each entry below is paired with its result.
COMPOUND	growth (%)
COc1ccc(C2CC(c3cccc(Nc4ccnc5cc(Cl)ccc45)c3)=NN2c2ccccc2)cc1 (stereo unspecified)	76.4
COc1ccc(/C=c2\c(=O)n(-c3ccccc3)c3nn4c(n23)=NNC42CCCCC2)cc1	95.1
O=C(NCC(c1ccsc1)N1CCCCCC1)c1ccc(C(F)(F)F)cc1 (stereo unspecified)	102
CC(C)CC(NC(=O)C(CCCN=C(N)N)NC(=O)OCc1ccccc1)C(=O)NC(CNC(=O)/C=C/c1ccccc1)C(C)C (stereo unspecified)	106
O=[N+]([O-])c1cccc([I+]c2ccccc2)c1	35
CC(C)N1CCN(c2ccncc2S(=O)(=O)N2CCN(C)CC2)CC1	103
CCc1ccc2c(c1)N(CCO)C1=C(C(=O)OC1)C2c1cccc(Cl)c1 (stereo unspecified)	27
Fc1cnccc1-c1nc2ccc3[nH]ncc3c2c2c1CCCC2	30.2
CCCCN(CCCC)CCC(=O)c1ccc(OC)c2ccccc12	75.3
Clc1ccccc1Nc1nnc(-c2ccncc2)s1	100

Form field: reported growth of Cc1ccc2nc(CN(CCN(Cc3nc4ccc(C)cc4[nH]3)Cc3nc4ccc(C)cc4[nH]3)Cc3nc4ccc(C)cc4[nH]3)[nH]c2c1
-71.8

Param item = CC(C)(C)c1ccc(Cn2c(-c3nonc3N)nc3ccccc32)cc1 ; retrieve measured growth.
80.1

Please report the recorded growth for O=C(O)c1ccccc1N=Cc1ccccc1 .
106

Need growth of Brc1ccccc1Cn1c(-c2cncs2)nc2ccccc21 , thanks.
79.2

Given COc1ccc(/C=C(/C(=O)N2CCN(c3ccccc3)CC2)c2cc(OC)c(OC)c(OC)c2)cc1N , state its recorded growth.
19.7

Consider the compound shown here: COc1cc2c(cc1C)NC(=O)/C2=C\c1c[nH]c2ccccc12 What is its recorded growth?
69.3

I am curious: what growth value has been reported for O=[N+]([O-])c1cccc(N=C(Nc2cccc([N+](=O)[O-])c2)c2ccccc2)c1 ?
93.4

Using the record for O=C(CI)NCCNc1cccc2c(S(=O)(=O)O)cccc12 , report its growth.
110

What value of growth has been reported for the following compound? CC(OC(=O)Nc1cccc(Cl)c1)C(=O)O (stereo unspecified)
95.3

Report growth for CCSc1ccc([C@@H]2[C@@H](N)C(=O)N2c2cc(OC)c(OC)c(OC)c2)cc1 please.
32.4

Look at this compound and give its reported growth. CCNS(=O)(=O)c1ccc(C)cc1
100

State the recorded growth for this entry: CC(=O)c1ccc(-n2c(-c3cc(-c4ccsc4)n[nH]3)n[nH]c2=S)cc1
98.9

Using the record for COc1ccc2nc(NC(=O)/C(=C/c3cc(OC)c(OC)c(OC)c3)c3ccc(OC)c(OC)c3)sc2c1 , report its growth.
90

Recorded growth for COc1cc(/C=C/c2ccc3c(Br)cc(Br)c(O)c3n2)ccc1O , please?
17.5

So what does the record say about growth for NS(=O)(=O)c1ccc(N2N=C(c3ccc(Br)cc3)CC2c2cn(-c3ccccc3)nc2-c2ccc(Cl)cc2)cc1 (stereo unspecified) ?
90.6

# growth lookup, item C1=C\CCCCN2CC[C@H]3[C@H](CCCC/C=C\CCCN4C[C@@H](CCCCC/1)C[C@@H]3C4)C2
77.4

Which growth is listed for CCCCOc1ncnc2nc[nH]c12 ?
99.4

Could you share which growth value was measured for COc1ccc2c(c1)CCCC21C(=O)Nc2ccccc21 (stereo unspecified) ?
95.5

For the compound CNC(=O)c1cc(Oc2ccc(NC(=O)c3[nH]c(SC)nc3-c3ccc(F)cc3)cc2)ccn1 , what growth is on record?
69.1

Given the compound COc1cc(Cn2c(-c3ccccc3)cc3c2-c2oncc2CC3)cc(OC)c1OC , what is its reported growth?
34.2

Which value of growth has been reported for O=C(Nc1ccc2ncnc(Nc3ccc(F)c(Cl)c3)c2c1)c1cccs1 in the records?
66.2

# query: growth of entry COc1c(B(O)O)cccc1-c1nc2c(F)cc3n[nH]c(C)c3c2c2c1CCCC2
17.3

// growth lookup, key: Cc1cc(C#Cc2ccccc2)ccc1-n1c(/C=C/c2ccc(F)cc2)nc2ccccc2c1=O
90.6

Given the entry CCc1oc2ccccc2c1C(=O)c1cc(I)c(O)c(I)c1 , report its measured growth.
56.7

Look up growth: COc1ccc(-c2nsc3c2NC(=O)CC3c2ccc3c(c2)OCO3)cc1 (stereo unspecified)
26.2
